Recorded AUC(0-t) for the following molecules
assay: Drug concentration in plasma of cynomolgus monkey (LC/MS/MS); assay type: in vivo; settings: IV infusion, 1 mg/kg, male cynomolgus monkey, read-out: GS-AUClast
Give the number; µM·h is assumed, so skip it.

Please review the entries below; each comes with its answer.
>>> df
                                   molecule  attribute_measured  measured_value
0  O=C(O)c1ccc(N2CC(O)(c3ccc(OCc4c(-c5c(Cl)cc(F)cc5Cl)noc4C4CC4)cc3Cl)C2)nc1 [Example 1]            AUC(0-t)            3.15
1  O=C(O)c1cnc(N2CC(O)(c3ccc(OCc4c(-c5c(Cl)cc(F)cc5Cl)noc4C4CC4)cc3Cl)C2)c(F)c1 [Comparative Example 1]            AUC(0-t)            1.63

Switching to the query record.
Which value of AUC(0-t) has been reported for O=C(O)c1ccc(N2CC(O)(c3ccc(OCc4c(-c5c(Cl)cccc5Cl)noc4C4CC4)cc3Cl)C2)nc1 [Comparative Example 2] in the records?
3.14

====

target: human UGT1A1 (Homo sapiens, UniProt P22309)
Sequence (P22309 26-533): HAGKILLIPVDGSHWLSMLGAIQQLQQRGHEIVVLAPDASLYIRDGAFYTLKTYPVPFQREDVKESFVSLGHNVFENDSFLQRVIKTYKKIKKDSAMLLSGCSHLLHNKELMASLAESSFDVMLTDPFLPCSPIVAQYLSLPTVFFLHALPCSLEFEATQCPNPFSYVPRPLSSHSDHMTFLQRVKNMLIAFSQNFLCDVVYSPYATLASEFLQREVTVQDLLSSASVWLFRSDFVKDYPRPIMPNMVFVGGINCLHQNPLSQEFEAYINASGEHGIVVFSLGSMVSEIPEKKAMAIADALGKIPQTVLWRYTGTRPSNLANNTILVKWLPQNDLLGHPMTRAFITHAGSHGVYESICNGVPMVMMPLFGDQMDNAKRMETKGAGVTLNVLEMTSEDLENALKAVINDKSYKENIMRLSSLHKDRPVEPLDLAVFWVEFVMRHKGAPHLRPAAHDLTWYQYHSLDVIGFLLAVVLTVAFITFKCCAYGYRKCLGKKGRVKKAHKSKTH
attribute_measured: IC50 (µM)
Give the number; µM is assumed, so skip it.

Hi! What's the reported IC50 for O=C(O)c1ccc(N2CC(O)(c3ccc(OCc4c(-c5c(Cl)cc(F)cc5Cl)noc4C4CC4)cc3Cl)C2)nc1 on human UGT1A1 (Homo sapiens, UniProt P22309)?
0.44

src = patent US20220204491A1
